system: DU-145 prostate; test: NCI-60 one-dose screen, 48 h; conditions: 10 µM unless noted
Compounds without any hit were thinned out: in the full panel of roughly 83,000, 20% have a hit. Activity calls are given as the source filed them. The calls were made as follows: active = growth percent below 10; inactive = the rest.
Respond only with the outcome that fits, drawn from Yes = active, No = inactive

Some solved cases for reference:
[
  {
    "compound": "CCCCOc1nc2ccccc2cc1/C=C/c1cc(/C=C/c2cc3ccccc3nc2OCCCC)n(-c2ccccc2)n1",
    "target entity": "DU-145 prostate",
    "answer label": "No"
  },
  {
    "compound": "Cn1c(=O)c2c(nc(N/N=C/c3ccccc3Cl)n2C)n(C)c1=O",
    "target entity": "DU-145 prostate",
    "answer label": "No"
  },
  {
    "compound": "COc1ccc(C(=O)C(CN(C)C)c2ccc(OC)cc2)cc1 (stereo not given)",
    "target entity": "DU-145 prostate",
    "answer label": "Yes"
  },
  {
    "compound": "O=C(Nc1ccc(Br)cc1)c1ccc(Cl)c(Cl)c1",
    "target entity": "DU-145 prostate",
    "answer label": "No"
  },
  {
    "compound": "CCN(CC)CCCC(C)Nc1ccnc2ccc(Oc3ccccc3)cc12 (stereo not given)",
    "target entity": "DU-145 prostate",
    "answer label": "No"
  },
  {
    "compound": "C=C(C)[C@@H]1CC[C@]2(C(=O)O)CC[C@]3(C)[C@H](CC[C@@H]4[C@@]5(C)C[C@@H](CC#Cc6ccc(C(C)=O)s6)[C@H](O)C(C)(C)[C@@H]5CC[C@]43C)[C@@H]12",
    "target entity": "DU-145 prostate",
    "answer label": "No"
  }
]

In: Recorded call for `CCNCCCn1c2c(c3ccc(Cl)cc3c1=O)C(=O)c1cc(OC)cnc1-2` ?
Out: Yes

In: Recorded call for O=C1N(Cc2ccccc2Cl)c2ccccc2C12NN=C(c1ccccc1)S2 (stereo not given) ?
Out: No

In: Recorded call for `O=C(NCCN1CCCC1)n1cc(-c2ccncc2)c(-c2cc(O)cc(Cl)c2)n1` ?
Out: No

====

system: UACC-257 melanoma; experiment: NCI-60 one-dose screen, 48 h (100 = growth as untreated, 0 = no growth, -100 = all killed); conditions: 10 µM unless noted
The panel holds about 83,000 compounds, 20% with a hit somewhere; the sample as a whole holds those more often.
Rule: 1 for growth not less than 90%, 0 for anything less.

In: Dear colleague, could you confirm whether `CC(=O)Cc1ccccn1` has growth at or above 90%?
Out: 1

In: Dear colleague, could you confirm whether O=C(CSc1nnc(Cc2ccccc2Nc2c(Cl)cccc2Cl)n1-c1ccccc1)N1N=C(c2ccc3ccccc3c2)CC1c1ccc(Cl)cc1 (stereo not given) has growth at or above 90%?
Out: 1

In: Dear colleague, could you confirm whether `O=C1/C(=C/c2cc(F)cc(F)c2)Cc2cc(F)cc(F)c21` has growth at or above 90%?
Out: 1

In: Dear colleague, could you confirm whether O=C1/C(=C/N2N=C(c3ccc(Cl)cc3)CC2c2ccccc2O)SC(=S)N1c1cccc(C(F)(F)F)c1 (stereo not given) has growth at or above 90%?
Out: 1

In: Dear colleague, could you confirm whether `CC1CCN(CCCCCOc2ccc3oc4ccc(Cl)cc4c(=O)c3c2)CC1` has growth at or above 90%?
Out: 0

In: Dear colleague, could you confirm whether `C=C(C)[C@@H]1CC[C@]2(C(=O)NS(=O)(=O)c3ccccc3)CC[C@]3(C)[C@H](CC[C@@H]4[C@@]5(C)CC[C@H](OC(=O)NS(=O)(=O)c6ccccc6)C(C)(C)[C@@H]5CC[C@]43C)[C@@H]12` has growth at or above 90%?
Out: 0

In: Dear colleague, could you confirm whether `C=C1C(=O)O[C@H]2[C@H]1CC/C(COC(=O)NCc1c[nH]c3ccc(OC)cc13)=C\CC[C@@]1(C)O[C@@H]21` has growth at or above 90%?
Out: 0

In: Dear colleague, could you confirm whether `CCCCOC(=O)c1cc(O)c(O)c(O)c1` has growth at or above 90%?
Out: 1

In: Dear colleague, could you confirm whether `c1csc(-c2cnc3nonc3n2)c1` has growth at or above 90%?
Out: 0

In: Dear colleague, could you confirm whether `CCN(CC)CCNC(=O)C(F)(F)C(F)(F)C(F)(F)F` has growth at or above 90%?
Out: 1

In: Dear colleague, could you confirm whether `CCN(CC)c1ccc(/C=C2/NC(=O)NC2=O)cc1` has growth at or above 90%?
Out: 0

In: Dear colleague, could you confirm whether `CCN1CCN(Cc2ccc(NC(=O)Nc3ccc(-n4ccc5c(NC(=O)c6ccccc6)nccc54)cc3)cc2C(F)(F)F)CC1` has growth at or above 90%?
Out: 0

In: Dear colleague, could you confirm whether `CCCCCCCCCCCC1=NC(C)(C)CN1C(C)C` has growth at or above 90%?
Out: 0

In: Dear colleague, could you confirm whether `CCC(=O)NC1=C(Cl)C(=O)C(NC(=O)CC)=C(Cl)C1=O` has growth at or above 90%?
Out: 1

====

test system: SW-620 colon; assay: NCI-60 one-dose screen, 48 h; conditions: 10 µM unless noted
This is part of a sample that, as a whole, favours compounds with a hit. Of some 83,000 tested, about 20% had one in any assay. Calls of active or inactive are those of the source. How the source made its calls: active means growth percent below 10; inactive means the rest.
Respond only with the outcome that fits, drawn from t (active), f (inactive)

[
  {
    "structure smiles": "Nc1cc(C(=O)O)cc(C(=O)O)c1",
    "answer label": "f"
  },
  {
    "structure smiles": "CCN(CC)CC(=O)Nc1c(C)ccc(N)c1C",
    "answer label": "f"
  },
  {
    "structure smiles": "CCCCCCCC/C=C/CCCCCCCC1=NC(C)(C)CN1c1ccccc1",
    "answer label": "f"
  }
]

In: Recorded call for `N=C(N)c1ccc(-c2ccc(-c3cccs3)s2)cc1F` ?
Out: t

In: Recorded call for `Cc1cc(Nc2c3ccccc3nc3ccccc23)ccc1NS(C)(=O)=O` ?
Out: f

In: Recorded call for `O=C(N/N=C/c1ccc([N+](=O)[O-])o1)c1ccc(O)cc1` ?
Out: f

In: Recorded call for `COc1cc(NC(=O)CSc2nc3ccc(Cl)cc3c(=O)n2-c2ccccc2)cc(OC)c1OC` ?
Out: f

In: Recorded call for `COc1cccc(-c2nc3sccn3c2-c2ccnc(NCCN3CCCN(C)S3(=O)=O)n2)c1` ?
Out: f

In: Recorded call for `CN(C)CCCN1c2ccccc2CCc2ccccc21` ?
Out: f

In: Recorded call for `CC(C)(c1ccccc1)c1cc(O)c(C(C)(C)c2ccccc2)cc1O` ?
Out: f

In: Recorded call for `O=S(=O)(Nc1ccc2ccccc2c1)N1CCCCC1` ?
Out: f

====

test system: SK-MEL-28 melanoma; assay: NCI-60 one-dose screen, 48 h; settings: 10 µM unless noted
The panel holds about 83,000 compounds, 20% with a hit somewhere; the sample as a whole holds those more often. Active and inactive are the calls of the source. Rule for the calls: active = growth percent below 10; inactive = the rest.
Respond only with the outcome that fits, drawn from active, inactive

[
  {
    "compound": "CN(C)CCCN1c2ccccc2CCc2ccccc21",
    "target entity": "SK-MEL-28 melanoma",
    "answer label": "inactive"
  }
]

In: Recorded call for OC(CCCCCCCCC(O)CN1CCc2ccccc2C1)CN1CCc2ccccc2C1 (stereo unspecified) ?
Out: inactive

In: Recorded call for NC(CCC(=O)NC(CS)C(=O)NCC(=O)O)C(=O)O (stereo unspecified) ?
Out: inactive

In: Recorded call for `N#Cc1ccc(-c2ccc(-c3cccs3)o2)cc1F` ?
Out: inactive

In: Recorded call for `CCCCOC(=O)c1cc(O)c(O)c(O)c1` ?
Out: inactive

In: Recorded call for `C#Cc1cccc(Nc2nc3cc([N+](=O)[O-])ccc3nc2Nc2ccc(O)cc2)c1` ?
Out: inactive

In: Recorded call for `OC(COCc1ccccc1)COCc1ccccc1` ?
Out: inactive

In: Recorded call for COc1cc(CN2CCC(N3CCCC3=O)c3ccccc32)cc(OC)c1OC (stereo unspecified) ?
Out: inactive

In: Recorded call for `C(=Nc1ccc(-c2ccc(N=Cc3ccccc3)cc2)cc1)c1ccccc1` ?
Out: inactive

In: Recorded call for O=C1C=CN2C(=O)CC=CC2[C@@H]1O (stereo partly specified) ?
Out: inactive

In: Recorded call for `CC(C)[C@@H]1C=C2CC[C@H]3[C@](C)(CN)CCC[C@]3(C)[C@H]2CC1` ?
Out: active

====

test system: RXF 393 renal; experiment: NCI-60 one-dose screen, 48 h; conditions: 10 µM unless noted
The panel holds about 83,000 compounds, 20% with a hit somewhere; the sample as a whole holds those more often. Active and inactive are the calls of the source. The calls were made as follows: active = growth percent below 10; inactive = the rest.
Respond only with the outcome that fits, drawn from class 1 (active), class 0 (inactive)

Some solved cases for reference:
[
  {
    "compound": "COc1ccc(C(=O)OC2C(OC3C(O)COC(O[C@H]4C[C@H]5[C@@H]6CC=C7C[C@@H](O)CC[C@]7(C)[C@H]6CC[C@]5(C)[C@H]4[C@H](C)C(=O)CCC(C)C)C3OC(N)=O)OCC(O)C2O)cc1 (stereo not given in full)",
    "answer label": "class 1"
  },
  {
    "compound": "c1ccc2oc(-c3cnc4nonc4n3)cc2c1",
    "answer label": "class 0"
  },
  {
    "compound": "COc1cc(C)c(Cl)cc1C1=NN(c2ccc(S(N)(=O)=O)cc2)C(/C=C/c2ccccc2)C1 (stereo not given)",
    "answer label": "class 0"
  },
  {
    "compound": "Cc1ccc(NC(=O)c2sc3nc4c(cc3c2N)C(=O)CCC4)cc1Cl",
    "answer label": "class 0"
  }
]

Please look at the following compound next.
In: Recorded call for COc1cc(CN(c2ccc(C)cc2)C2OC(=O)c3ccccc32)cc(OC)c1OC (stereo not given) ?
Out: class 0

Numbers sourced from PubChem BioAssay (NCI).
